Assay: AUC (0 to 8 hrs) in ICR mouse at 1 mg/kg, po administered as cassette dose
Type: ADME, organism-based
Parameters: time < 8 hr, dose 1 mg/kg, route oral
Conditions: in vivo
MEASURED_PROPERTY: AUC(0-t) at 8 h (ng·h/mL)

Solved cases (2 shown):
• CCOc1c(CN2CC3(CC(N4CCC(C)(C(=O)O)CC4)=NO3)C2)cc(C2CC2)c(-c2ccc(F)cc2)c1Cl = 2510
• COc1c(CN2CC3(CC(N4CCC(C)(C(=O)O)CC4)=NO3)C2)cc(C2CC2)c(-c2ccc(F)cc2)c1Cl = 1480

I. CCOc1c(CN2CC3(CC(N4CCC(C)(C(=O)O)CC4)=NO3)C2)cc(C2CC2)c(-c2ccc(F)cc2)c1C
II. CCOc1cc(-c2ccc(F)cc2)c(C2CC2)cc1CN1CC2(CC(N3CCC(C)(C(=O)O)CC3)=NO2)C1
Input line: // max by AUC(0-t) at 8 h over [ I , II ] Your answer should be the label attached to the chosen record.
Output line: I
(I: 1830 ng·h/mL, II: 566 ng·h/mL)

---

Experiment: Mean residence time in ICR mouse at 1 mg/kg, po administered as cassette dose
Assay type: ADME, organism-based
Settings: in vivo
MEASURED_PROPERTY: MRT (h)
Only the number, expressed in h, is required.

Input line: Any idea what MRT was measured for COc1c(CN2CC3(CC(N4CCC(C)(C(=O)O)CC4)=NO3)C2)cc(C2CC2)c(-c2ccc(F)cc2)c1Cl ?
Output line: 3.9

---

Test: Cmax in ICR mouse at 1 mg/kg, po administered as cassette dose
Format: ADME, organism-based
Parameters: dose 1 mg/kg, route oral
Details: in vivo
MEASURED_PROPERTY: Cmax (ng/mL)
Only the number, expressed in ng/mL, is required.

Input line: Any idea what Cmax was measured for COc1c(CN2CC3(CC(N4CCC(C)(C(=O)O)CC4)=NO3)C2)cc(C2CC2)c(-c2ccc(F)cc2)c1Cl ?
Output line: 260

---

Experiment: 1-octanol/aqueous buffer solution partition coefficient, log D of the compound at pH 7.4 by UV-vis/HPLC method
Format: physicochemical
MEASURED_PROPERTY: logD

• CCOc1cc(CN2CC3(CC(N4CCC(CC)(C(=O)O)CC4)=NO3)C2)cc(OCC)c1-c1ccc(F)cc1 = 3.58
• CCOc1cc(CN2CC3(CC(N4CCC(C)(C(=O)O)CC4)=NO3)C2)cc(C2CC2)c1-c1ccc(F)cc1 = 3.75
• COc1c(CN2CC3(CC(N4CCC(C)(C(=O)O)CC4)=NO3)C2)cc(C2CC2)c(-c2ccc(F)cc2)c1Cl = 3.74
• CC(C)Oc1cc(-c2ccc(F)cc2)c(C2CC2)cc1CN1CC2(CC(N3CCC(C)(C(=O)O)CC3)=NO2)C1 = 4.24
• CCOc1cc(CN2CC3(CC(N4CCC(C)(C(=O)O)CC4)=NO3)C2)cc(CC)c1-c1ccc(F)cc1 = 3.65
• COc1cc(-c2ccc(F)cc2)c(C2CC2)cc1CN1CC2(CC(N3CCC(C)(C(=O)O)CC3)=NO2)C1 = 3.53
• CCc1cc(-c2ccc(F)cc2)c(C2CC2)cc1CN1CC2(CC(N3CCC(C)(C(=O)O)CC3)=NO2)C1 = 4.37
• CCOc1cc(-c2ccc(F)cc2)c(C2CC2)cc1CN1CC2(CC(N3CCC(C)(C(=O)O)CC3)=NO2)C1 = 3.98
• CCOc1cc(CN2CC3(CC(N4CCC(C)(C(=O)O)CC4)=NO3)C2)cc(OC)c1-c1ccc(F)cc1 = 2.84
• CCOc1cc(CN2CC3(CC(N4CCC(C)(C(=O)O)CC4)=NO3)C2)cc(C)c1-c1ccc(F)cc1 = 3.33
• CCOc1cc(CN2CC3(CC(N4CCC(C)(C(=O)O)CC4)=NO3)C2)cc(OCC)c1-c1ccc(F)cc1 = 3.33
